# Test system: Flt-1 receptor
# Sequence (P17948 27-327 limits assumed): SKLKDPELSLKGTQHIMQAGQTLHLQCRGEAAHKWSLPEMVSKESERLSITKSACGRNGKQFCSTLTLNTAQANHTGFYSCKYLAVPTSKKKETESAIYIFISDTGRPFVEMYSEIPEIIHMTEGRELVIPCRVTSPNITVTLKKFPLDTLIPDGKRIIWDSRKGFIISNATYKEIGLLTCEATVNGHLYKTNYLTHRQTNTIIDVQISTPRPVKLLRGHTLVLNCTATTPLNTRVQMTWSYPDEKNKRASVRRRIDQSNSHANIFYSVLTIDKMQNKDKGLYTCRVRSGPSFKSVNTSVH
# assay.explanation: Flt-1 receptor binding ELISA (inhibition of biotinylated native VEGF binding to Flt-IgG)
# applied.conditions: second figure of the cell, fold less binding than native VEGF
# Protocol: Receptor binding assays were performed in 96-well immunoplates (Maxisorp, Nunc-Immunoplate, Nalge Nunc International, Rochester, N.Y.). […] Aliquots of the mixture (100 μl) were added to the precoated microtiter wells and the plate was incubated for 2 hours at room temperature. […] Absorbance was read at 450 nm on a Vmax plate reader (Molecular Devices, Menlo Park, Calif.). […]
endpoint: Relative Binding Affinity, FLT-1 Receptor: ratio to native VEGF (8–109)

LK-VRB-11s (ligand, human, UniProt P15692-4 27-135, looked up) APMAEGGGQNHHEVVKFEDVLQRSYCHPIETLVDIFQEYPDEIEYIFKPSCVPLMRCGGCCNSEMRECVPTEESNITMQIMRIKPHQGQHIGEMSFLQHNKCECRPKKD    />14000
LK-VRB-22s (ligand, human, UniProt P15692-4 27-135, looked up) APMAEGGGQNHHEVVKFEDVLRRSSCHPIETLVDIFQEYPDEIEYIFKPSCVPLMRCGGCCNDEMLECVPTEESNITMQIMRIKPHQGQHIGEMSFLQHNKCECRPKKD    />30
LK-VRB-9s (ligand, human, UniProt P15692-4 27-135, looked up) APMAEGGGQNHHEVVKFMDVYRRSYCHPIETLVDIFQEYPDEIEYIFKPSCVPLMRCGGCCNSEMRECVPTEESNITMQIMRIKPHQGQHIGEMSFLQHNKCECRPKKD    /300
LK-VRB-13s (ligand, human, UniProt P15692-4 27-135, looked up) APMAEGGGQNHHEVVKFEDVYQRSSCHPIETLVDIFQEYPDEIEYIFKPSCVPLMRCGGCCNSEMRECVPTEESNITMQIMRIKPHQGQHIGEMSFLQHNKCECRPKKD    />14000
